assay: protein stability index of a GFP-peptide fusion (yeast GPS) (PSI 1-4); higher = more stable; sorted into four equal gates, so the index is relative within each strain; settings: pdr5∆
REPORTED_METRIC: protein stability index
Could you keep your reply to the number by itself?

Exercise: Find the recorded protein stability index belonging to ALTTIKGVGRRYSNLVC [RPS18A] and report it.
Key: 2.4

Exercise: Find the recorded protein stability index belonging to AADTSIVEQDKSMELFY [YJL039C/NUP192] and report it.
Key: 2.61

Exercise: Find the recorded protein stability index belonging to LDNSKMDYHFIFSYLQF [RGR1] and report it.
Key: 1.72

Exercise: Find the recorded protein stability index belonging to YDSRTTIFSPEGRLYQV [PRE9] and report it.
Key: 3.31

Exercise: Find the recorded protein stability index belonging to ENHNKGKLWKDVKARIA [QCR9] and report it.
Key: 3.07

Exercise: Find the recorded protein stability index belonging to PWCVKPEYLAMYGLTME [ITC1] and report it.
Key: 3.03

Exercise: Find the recorded protein stability index belonging to IFNSGKMIILDKLLKRL [ISW2] and report it.
Key: 1.93

Exercise: Find the recorded protein stability index belonging to DILLNERVWNICLYSSF [AAR2] and report it.
Key: 1.68

Exercise: Find the recorded protein stability index belonging to AKEVKVLYHTSGAITFV [PRP8] and report it.
Key: 2.5

Exercise: Find the recorded protein stability index belonging to THVANFMNDAAADVSAV [YML103C/NUP188] and report it.
Key: 2.77

Exercise: Find the recorded protein stability index belonging to LSINEKDFVTMAIEIIN [YCG1] and report it.
Key: 2.38

Exercise: Find the recorded protein stability index belonging to ILEVGALASIQTFNFDS [RPN12] and report it.
Key: 2.65

Exercise: Find the recorded protein stability index belonging to SLHILMIFWNDICQIDT [SRB8] and report it.
Key: 1.33

* * *

experiment: protein stability index of a GFP-peptide fusion (yeast GPS) (PSI 1-4); higher = more stable; sorted into four equal gates, so the index is relative within each strain; details: pdr5∆
Measured protein stability index, listed per entry for reference.
Could you keep your reply to the number by itself?

Study these solved cases before continuing.
>>> recorded_result("ALKDPQTDADRVKDPQW [RIP1]")
3.68
>>> recorded_result("EIPEGVTVSIKSRIVKV [RPL9B]")
1.45
>>> recorded_result("DLVLGKPLADLRPLFTR [YLR335W/NUP2]")
2.76

Next:
Exercise: Find the recorded protein stability index belonging to EFGTYGKYVIAGHVSGV [RPN14] and report it.
Key: 1.57

* * *

test: protein stability index of a GFP-peptide fusion (yeast GPS) (PSI 1-4); higher = more stable; sorted into four equal gates, so the index is relative within each strain; conditions: san1∆
Record 1 whenever protein stability index is at 3 or higher; record -1 when lower.

Reference set (2 entries):
>>> label("NSIDSTSRIELELKNIG [ECM29]")
-1
>>> label("AASVIGMLVALGRLSVR [RPC82]")
-1

Exercise: Is the recorded value of protein stability index equal to or greater than 3 for this sequence? ANNDINSLLSNFNDIPP [YDL088C/ASM4]
Key: -1

Exercise: Is the recorded value of protein stability index equal to or greater than 3 for this sequence? FEIIDEASKKSAVKPRP [FAS1]
Key: 1

* * *

Measured protein stability index, listed per entry for reference.
experiment: protein stability index of a GFP-peptide fusion (yeast GPS) (PSI 1-4); higher = more stable; sorted into four equal gates, so the index is relative within each strain; details: san1∆
Could you keep your reply to the number by itself?

Study these solved cases before continuing.
>>> recorded_result("SSFRPCPLSQQFCGIKE [BRR2]")
2.38
>>> recorded_result("ISEVMEDRNQRIKEMYW [FAS1]")
2.99
>>> recorded_result("RKRHQRALKVRNAQAQR [RPS6A]")
2.73
>>> recorded_result("TNGKPDMAILERYYELA [ARP7]")
3.01
>>> recorded_result("TATGIKVFSLDPQYLVD [ASC1]")
2.89

Exercise: Find the recorded protein stability index belonging to LATYCPRVQGFYVPQAR [GRR1] and report it.
Key: 2.03

Exercise: Find the recorded protein stability index belonging to IIESHLIQLQNIFKAEM [CSN9] and report it.
Key: 2.85

Exercise: Find the recorded protein stability index belonging to LEACIVRIMKAKRNLPH [CDC53] and report it.
Key: 1.3

Exercise: Find the recorded protein stability index belonging to RHLVNRGREEAASFKKL [PRE10] and report it.
Key: 3

Exercise: Find the recorded protein stability index belonging to DEELVSHFVSAVSTIAS [RPP0] and report it.
Key: 2.76

Exercise: Find the recorded protein stability index belonging to GSVIQTHIAESAKEIAK [MCD1] and report it.
Key: 3

Exercise: Find the recorded protein stability index belonging to LKKANIIYHTTFSWLNA [YLR018C/POM34] and report it.
Key: 2.41

Exercise: Find the recorded protein stability index belonging to DTYKRFKYLLGVTDLFR [ISW2] and report it.
Key: 1.21

* * *

test: protein stability index of a GFP-peptide fusion (yeast GPS) (PSI 1-4); higher = more stable; sorted into four equal gates, so the index is relative within each strain; conditions: san1∆
Record Condition met whenever protein stability index is at 3 or higher; record Condition not met when lower.

>>> label("GRIPLHWSVSFQAHEIT [NAS6]")
"Condition not met"
>>> label("KLEEESKRGNDKKHFNN [RPC53]")
"Condition met"
>>> label("AKNFSAQKRVVSYMMPS [SRB8]")
"Condition not met"
>>> label("ANIFRIHSKSMSVERGI [RPT1]")
"Condition met"

Could you now look at the following sequence, please?
Exercise: Is the recorded value of protein stability index equal to or greater than 3 for this sequence? LSNPSNQNICTSVTRRS [GRR1]
Key: Condition not met

* * *

experiment: protein stability index of a GFP-peptide fusion (yeast GPS) (PSI 1-4); higher = more stable; sorted into four equal gates, so the index is relative within each strain; conditions: ubr1∆
Record y whenever protein stability index is at 3 or higher; record n when lower.

>>> label("ISEINFLHESSFDSIDH [CSI1]")
"n"
>>> label("LIETVFVKNIRMLSFED [RPN9]")
"n"
>>> label("GVATKDKFFTLSAENIE [SCL1]")
"y"
>>> label("ETQYFWKLLNQLVLRGL [YJR042W/NUP85]")
"n"
>>> label("AFAFCIPVYCFSHPAHQ [YCG1]")
"n"
>>> label("EVYEALKEVLYNDSATS [RPN2]")
"y"

Exercise: Is the recorded value of protein stability index equal to or greater than 3 for this sequence? SKLKEEEAALLIKERQE [ESC2]
Key: n

Exercise: Is the recorded value of protein stability index equal to or greater than 3 for this sequence? PMPIITFLSEWGMEPLE [RPB2]
Key: n

Exercise: Is the recorded value of protein stability index equal to or greater than 3 for this sequence? EEEKSVDASPNDVTRRT [CSL4]
Key: y

Exercise: Is the recorded value of protein stability index equal to or greater than 3 for this sequence? LREAPADYWTHAYRDVL [SNF6]
Key: n

Exercise: Is the recorded value of protein stability index equal to or greater than 3 for this sequence? IPKQLLDDEKIFSQTTN [YJL039C/NUP192]
Key: y

* * *

assay: protein stability index of a GFP-peptide fusion (yeast GPS) (PSI 1-4); higher = more stable; sorted into four equal gates, so the index is relative within each strain; settings: ubr1∆
Measured protein stability index, listed per entry for reference.
Could you keep your reply to the number by itself?

>>> recorded_result("VILGADSRTTTGAYIAN [PRE3]")
2.81
>>> recorded_result("STANPNIKLLNNRMGSY [POP1]")
3.04

Exercise: Find the recorded protein stability index belonging to NAISLQLKYDTSVQEKE [YIL149C/MLP2] and report it.
Key: 2.92

Exercise: Find the recorded protein stability index belonging to MDVDQFDFLDDGTAQLS [YJR042W/NUP85] and report it.
Key: 2.53

Exercise: Find the recorded protein stability index belonging to LKGRVVEVCLADLQGSE [RPS1A] and report it.
Key: 2.49

Exercise: Find the recorded protein stability index belonging to TLTASPDGTLIASAGKD [ASC1] and report it.
Key: 3.14

Exercise: Find the recorded protein stability index belonging to LLQGGAKVVVTTSRFSK [FAS2] and report it.
Key: 2.78

Exercise: Find the recorded protein stability index belonging to NEYRLAFYQVTPEEDEE [RPL22A] and report it.
Key: 2.69

Exercise: Find the recorded protein stability index belonging to KGPRFRKLTSQEINDRL [PRE8] and report it.
Key: 3.58

Measured values drawn from the supplement of paper PMC9732359 for this set.
